For each of the compounds below, state its IC50.
Target: full-length human PRMT8 isoform 1 (Homo sapiens, UniProt Q9NR22)
Sequence (Q9NR22 whole entry, canonical isoform): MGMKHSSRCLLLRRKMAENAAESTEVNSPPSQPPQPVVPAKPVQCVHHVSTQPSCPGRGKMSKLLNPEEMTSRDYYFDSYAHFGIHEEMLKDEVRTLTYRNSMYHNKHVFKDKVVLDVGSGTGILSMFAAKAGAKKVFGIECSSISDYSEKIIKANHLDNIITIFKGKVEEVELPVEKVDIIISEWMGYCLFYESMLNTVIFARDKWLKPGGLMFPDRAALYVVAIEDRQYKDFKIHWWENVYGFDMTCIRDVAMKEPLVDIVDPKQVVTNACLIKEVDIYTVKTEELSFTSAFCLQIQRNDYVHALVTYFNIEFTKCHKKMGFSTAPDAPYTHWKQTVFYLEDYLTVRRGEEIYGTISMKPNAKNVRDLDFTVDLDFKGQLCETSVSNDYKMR
Assay: PRMT8 biochemical assay (3H-SAM Flashplate, histone H4 31-45 peptide)
Settings: 1.5 nM PRMT8, 30 min preincubation, 150 nM peptide
Text: S-adenosylmethionine (SAM), S-adenosylhomocysteine (SAH), bicine, Tween20, dimethylsulfoxide (DMSO), bovine skin gelatin (BSG), isopropyl-β-D-thiogalactopyranoside (IPTG), and Tris(2-carboxyethyl)phosphine hydrochloride solution (TCEP) were purchased from Sigma-Aldrich at the highest level of purity possible. ^3H-SAM was purchase from American Radiolabeled Chemicals with a specific activity of 80 Ci/mmol. 384-well streptavidin Flashplates were purchased from PerkinElmer. […]
Kindly answer with a numeric value in nM, unit omitted.

Endpoint output: IC50 of CCOCC1(COCC)CCC(c2nn(C)cc2CN(C)CCN)CC1 [compound 124] . Value?
25.4

Endpoint output: IC50 of CNCCN(C)Cc1c[nH]nc1[C@H]1CC[C@@]2(CCCOC2)CC1 [compound 5] . Value?
17.7

Endpoint output: IC50 of CNCCN(C)Cc1c[nH]nc1[C@@H]1CC[C@H](OCCCOC)C2(CCCC2)C1 (racemic) [compound 27] . Value?
31.2

Endpoint output: IC50 of CNCCN(C)Cc1c[nH]nc1C1CCC(COC)(COCC2CCOCC2)CC1 (stereo not drawn) [compound 45] . Value?
11.2

Endpoint output: IC50 of CNCCN(C)Cc1c[nH]nc1C1CC(COCC2CC2)CC(COCC2CC2)C1 (stereo not drawn) [compound 2] . Value?
365

Endpoint output: IC50 of CNCCN(C)Cc1c[nH]nc1[C@H]1CC[C@@]2(CCCCO2)CC1 [compound 3] . Value?
32.8

Endpoint output: IC50 of CNCCN(C)Cc1ccnn1[C@H]1CC[C@@]2(CC1)CC(C)(C)CO2 [compound 49] . Value?
16.7

Endpoint output: IC50 of CCC1(CC)C[C@]2(CC[C@H](c3n[nH]cc3CN(C)CCNC)CC2)NC1=O [compound 47] . Value?
14.9

Endpoint output: IC50 of CC[C@]12CC[C@](CC)(C[C@@H](c3n[nH]cc3CN(C)CCNC)C1)O2 [compound 38] . Value?
177

Entry source: patent US20170291905A1
